# assay-text: compound binding in COS7 lysate, probe aLAP1, primary screen, cell lysate, small-molecule microarray (AID 1124);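 further: lysate comes from COS7 cells expressing LAP1 and is applied at 0.3 µg/mL; score merges spot fluorescence near 667 nm with signal-to-noise over triplicate slides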
# run-conditions: probe aLAP1, fluorescence, higher = more signal
Mark N for composite z-score values under -0.02, and Y for everything at or above.

Check out these entries, answers already filled in.
Q) Reported composite z-score reaches at least -0.02 for [N-]=[N+]=NCc1ccccc1[C@@H]1OC(c2ccc(OCCCO)cc2)=N[C@]1(Cc1ccccc1)C(=O)N1CCCCC1 ?
A) N

Q) Reported composite z-score reaches at least -0.02 for CCCCC=C[C@@H](NC(=O)c1ccc(C(=O)OC)cc1)c1ccccc1 ?
A) Y

Q) Reported composite z-score reaches at least -0.02 for COc1ccc(NN2C(C(O)c3ccc(OC)c(OCc4ccccc4)c3)C=CC3C(=O)N(C4CCCCC4)C(=O)C32)cc1 (stereo not given) ?
A) Y

Q) Reported composite z-score reaches at least -0.02 for O=C1OCCC=C[C@H]2OC34C=CCN(Cc5ccccc5)C(=O)[C@H]3N(CCCCCO)C(=O)[C@@H]4C12 (stereo not given in full) ?
A) Y

Next:
Q) Reported composite z-score reaches at least -0.02 for O=C1O[C@@H](c2ccccc2)[C@@H](c2ccccc2)N2[C@@H](c3ccc(O)cc3)[C@]3(C(=O)Nc4ccc(C#CC5=CCCCC5)cc43)[C@@H](C(=O)O)[C@H]12 ?
A) Y

Q) Reported composite z-score reaches at least -0.02 for Cc1ccc(S[C@]2(C(=O)NCCN3CCOCC3)CC(=O)N(Cc3cc(C(F)(F)F)cc(C(F)(F)F)c3)[C@@H]2c2ccc(CO)cc2I)cc1 ?
A) N

Q) Reported composite z-score reaches at least -0.02 for NCCCCCCNC(=O)[C@H]1C[C@H]2C(=O)NCC(=O)N2[C@H]1c1cccc(OCCO)c1 ?
A) Y

Q) Reported composite z-score reaches at least -0.02 for CCOC(=O)[C@H]1C/C=C/C[C@H](C(=O)OCC)C(=O)O[C@H]2[C@@H](OC)O[C@H](CO)[C@@H](OC(=O)Nc3ccc4c(c3)OCO4)[C@@H]2OC1=O ?
A) Y
